COUNTERSCREEN Efficacy (%): recorded values
Target: GST-CIB1 : F-scrambled peptide (Homo sapiens, UniProt Q99828)
Construct: made in house; host or cells: BL-21 plus RIL cells (E. coli)
Sequence (Q99828 whole entry): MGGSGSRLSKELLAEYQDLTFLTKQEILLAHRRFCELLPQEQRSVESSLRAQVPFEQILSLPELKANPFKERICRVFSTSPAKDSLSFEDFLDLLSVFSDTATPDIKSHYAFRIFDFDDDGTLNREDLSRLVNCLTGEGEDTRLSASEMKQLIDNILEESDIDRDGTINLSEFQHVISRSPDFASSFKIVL
Test: FP scrambled-peptide counter screen, 1536-well format
Format: binding
Conditions: scrambled-peptide counterscreen
Write down the numeric answer in % and omit the unit.

- Compound: "CC(C)=CCC[C@]1(C)C=Cc2c(O)c3c(c(CC=C(C)C)c2O1)O[C@]12C(=C[C@@H]4CC1C(C)(C)O[C@@]2(C/C=C(/C)C(=O)O)C4=O)C3=O"
  COUNTERSCREEN Efficacy (%): 32
- Compound: "Cc1ccccc1C(=O)c1no[n+]([O-])c1C(=O)c1ccccc1C.O=C(O)C(F)(F)F"
  COUNTERSCREEN Efficacy (%): -24
- Compound: "COC(=O)[C@]12CCC(C)(C)C[C@H]1[C@H]1C(=O)C=C3[C@@]4(C)C=C(C#N)C(=O)C(C)(C)[C@@H]4CC[C@@]3(C)[C@]1(C)CC2"
  COUNTERSCREEN Efficacy (%): -36
- Compound: "CN(C)[C@H]1CCN(c2cccc(Nc3nn4c(=O)c5ccccc5nc4s3)c2)C1.O=C(O)C(F)(F)F"
  COUNTERSCREEN Efficacy (%): -79
- Compound: "Cc1cc(S(=O)(=O)Nc2cnccc2C(=O)Nc2nc(-c3ccccc3)cs2)c(C)o1.O=C(O)C(F)(F)F"
  COUNTERSCREEN Efficacy (%): 10
- Compound: "Cc1cc(F)ccc1S(=O)(=O)Nc1cnccc1C(=O)Nc1nc(-c2ccccc2)cs1"
  COUNTERSCREEN Efficacy (%): 28

Next up:
Query block: For the compound shown here, `CCc1ccc(/C=C2/SC(=S)NC2=O)cc1` , give the reported COUNTERSCREEN Efficacy (%).
Result block: 0
